target: GDP-KRAS(G12D) (Homo sapiens, UniProt P01116, G12D); test: Isothermal titration calorimetry; type: binding
Sequence (P01116 1-166 isoform P01116-2 G12D): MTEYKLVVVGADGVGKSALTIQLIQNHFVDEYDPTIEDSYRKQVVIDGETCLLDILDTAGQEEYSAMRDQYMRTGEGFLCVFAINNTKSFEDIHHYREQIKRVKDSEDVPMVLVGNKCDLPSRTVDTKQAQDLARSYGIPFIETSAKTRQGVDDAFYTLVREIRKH

| molecule | units.symbol | Kd |
| --- | --- | --- |
| O=C(O)c1cc(NC(=O)C2CC2c2ccccc2)ccc1O (stereo not shown) | µM | 45.9 |
